- assay.remarks: ATG_AP_2_CIS: Attagene CIS-FACTORIAL HepG2 Assay for human Activator Protein 2 (AP-2) (AID 2282932)
- condition.description: HepG2 AP-2 cis-reporter, Attagene transcription factor profiling; actives raise or lower the signal
The source made the active and inactive calls. The calls were made as follows: active = hit-call score of the fitted dose curve at least 0.9, where 1 is the maximum; inactive = score below 0.9.
Possible outcomes: 1 (yes) = active, 0 (no) = inactive

>>> qualitative_label("CC(=O)OC[C@H]1O[C@@](COC(C)=O)(O[C@H]2O[C@H](COC(C)=O)[C@@H](OC(C)=O)[C@H](OC(C)=O)[C@H]2OC(C)=O)[C@@H](OC(C)=O)[C@@H]1OC(C)=O")
"0 (no)"
>>> qualitative_label("O=C(CCCCCCCCc1cccnc1)N1CCC(C=C(c2ccccc2)c2ccccc2)CC1")
"1 (yes)"
>>> qualitative_label("CC[C@H]1CC[C@H](NCc2cc3c(cc2OC)[C@H]2C[C@H]2C(=O)N3C)[C@H](c2ccccc2)N1")
"1 (yes)"
>>> qualitative_label("COC(=O)CC(=O)OC")
"0 (no)"
>>> qualitative_label("CCOC(=O)c1ccc(C2CCC(NC[C@H](O)COc3ccc(O)c(NS(C)(=O)=O)c3)CC2)cc1 (stereo not given in full)")
"0 (no)"
>>> qualitative_label("CCCCC(CC)COC(=O)CCCCCCCCC(=O)OCC(CC)CCCC (stereo not given)")
"0 (no)"
>>> qualitative_label("Cn1c(=O)cc(Oc2ccc(F)cc2F)c2cnc(NCC(C)(C)O)nc21")
"0 (no)"
>>> qualitative_label("Clc1nc(Cl)c(Cl)c(Cl)c1Cl")
"0 (no)"
>>> qualitative_label("O=C1CCCCCN1")
"0 (no)"
>>> qualitative_label("Cn1cnc([N+](=O)[O-])c1Sc1ncnc2nc[nH]c12")
"0 (no)"
>>> qualitative_label("CCC(C)(C)C(=O)O[C@H]1C[C@@H](C)C=C2C=C[C@H](C)[C@H](CC[C@@H]3C[C@@H](O)CC(=O)O3)[C@H]21")
"0 (no)"
>>> qualitative_label("CCn1nc(Cc2ccccc2)cc1C1CCN(C[C@H]2C[C@H](N(C)[C@@H](C(=O)O)C(C)C)C[C@@H]2c2cccc(F)c2)CC1")
"0 (no)"
>>> qualitative_label("C=CCCCCCCCCC(=O)O")
"0 (no)"
>>> qualitative_label("CCCCCCCCCCCCCCCO")
"0 (no)"
>>> qualitative_label("CC(C)(O)c1coc(S(=O)(=O)NC(=O)Nc2c3c(cc4c2CCC4)CCC3)c1")
"0 (no)"
>>> qualitative_label("COc1ccc(/C=C/S(=O)(=O)NC(=O)c2ccc(C)cc2Cl)cc1")
"0 (no)"
>>> qualitative_label("COC(=O)c1c(Cl)c(Cl)c(C(=O)OC)c(Cl)c1Cl")
"0 (no)"
>>> qualitative_label("O=C(O)CC(O)C(=O)O (stereo not given)")
"0 (no)"
>>> qualitative_label("Cc1[nH]cnc1C[C@H]1CCc2c(C)c3ccccc3n2C1=O")
"0 (no)"
>>> qualitative_label("O=C(O)c1cc(N=Nc2ccc(S(=O)(=O)Nc3ccccn3)cc2)ccc1O")
"0 (no)"
